Origin of values: the supplement of paper PMC10567573

B1: GALNT9 (parent)
chain: FTQSGPIVSRATGRCLEVEMSKDA

- Variants of: B1
- Test Summary: protein stability index of a GFP-peptide fusion (GPS, HEK-293T) (PSI 1-6); higher = more stable;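 also: lentivirally expressed fusions sorted by FACS into six bins by GFP to DsRed ratio, PSI derived from sequencing read proportions per bin multiplied by bin number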
- Condition Notes: c terminus: a fixed tail appended
Reported Endpoint: protein stability index
Response field accepts a number only; no unit should be typed.

Memo: Q3H , reported protein stability index: 2.04

Memo: F1W , reported protein stability index: 2.3

Memo: E19I , reported protein stability index: 1.71
